Just for reference, patent US20130267494A1 is where these values come from.

target: human norepinephrine transporter (Homo sapiens, UniProt P23975); construct: expressed in transfected cells; assay: Inhibitory action on human norepinephrine transporter ([3H]-norepinephrine uptake in CHO cells); type: cell-based; conditions: CHO, compound 1 μM; relative to inhibitory activity of 10 μM DMI as 100%; read-out: inhibitory rate (%)
Sequence (P23975 whole entry): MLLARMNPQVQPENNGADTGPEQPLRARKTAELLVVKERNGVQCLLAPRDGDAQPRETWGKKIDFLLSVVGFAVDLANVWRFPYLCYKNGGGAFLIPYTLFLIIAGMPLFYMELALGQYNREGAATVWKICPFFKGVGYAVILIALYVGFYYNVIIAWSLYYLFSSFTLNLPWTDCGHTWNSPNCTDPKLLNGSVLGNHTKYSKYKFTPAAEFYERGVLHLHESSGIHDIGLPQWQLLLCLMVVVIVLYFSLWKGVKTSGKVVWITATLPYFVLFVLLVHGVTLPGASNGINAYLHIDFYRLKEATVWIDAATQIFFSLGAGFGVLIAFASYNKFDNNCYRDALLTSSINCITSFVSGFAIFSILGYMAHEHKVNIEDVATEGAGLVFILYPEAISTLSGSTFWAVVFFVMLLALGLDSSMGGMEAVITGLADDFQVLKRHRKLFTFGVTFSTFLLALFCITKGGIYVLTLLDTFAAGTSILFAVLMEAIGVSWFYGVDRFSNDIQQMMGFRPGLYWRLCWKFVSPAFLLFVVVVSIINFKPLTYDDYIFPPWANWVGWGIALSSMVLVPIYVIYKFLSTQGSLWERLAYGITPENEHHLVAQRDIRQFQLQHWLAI
Structures can show the parent of a compound that is named as a salt.
Collected inhibition at 1 µM values appear next to each entry.

O=C(CC(F)(F)F)NC[C@@H]1CNCCO[C@H]1c1ccc(Cl)c(F)c1 [Example 314, monohydrochloride]	104%
CC(=O)N[C@H]1CNCCO[C@@H]1c1ccc(Cl)c(Cl)c1 [Example 240, monohydrochloride]	105%
O=c1cccnn1C[C@H]1OCCNC[C@H]1c1ccc(Cl)c(Cl)c1 [Example 481, monohydrochloride]	100%

Proceeding to the next compound to report its inhibition at 1 µM.
Task: // returns reported inhibition at 1 µM for input O=c1cccnn1C[C@@H]1OCCNC[C@H]1c1ccc(Cl)c(Cl)c1 [Example 515, monohydrochloride]
Output: 104%

----------
target: human norepinephrine transporter (Homo sapiens); construct: expressed in transfected cells; experiment: Inhibitory action on human norepinephrine transporter ([3H]-norepinephrine uptake in CHO cells); type: cell-based; conditions: CHO, compound 1 μM; relative to inhibitory activity of 10 μM DMI as 100%; read-out: inhibitory rate (%)
Where a name gives a salt, the structure may show the parent alone.
measure: inhibition at 1 µM (%)
Report the value in % with no unit label.

Worked set:
O=c1[nH]nc(-c2cccnc2O[C@@H]2CNCCO[C@H]2c2ccc(Cl)c(F)c2)[nH]1 [Example 558, monohydrochloride]	106
O=c1[nH]c(-c2ccccc2O[C@@H]2CNCCO[C@H]2c2ccc(Cl)c(F)c2)no1 [Example 577]	97
CS(=O)(=O)C[C@H]1CNCCOC1c1ccc(F)c(Cl)c1 (mixture of isomers) [Example 12, monohydrochloride]	97
CS(=O)(=O)NC[C@H]1CNCCO[C@@H]1c1ccc(F)c(Cl)c1 (racemic) [Example 293, monohydrochloride]	95

Task: // returns reported inhibition at 1 µM for input O[C@@H]1CNCCO[C@H]1c1ccc(Cl)c(F)c1 [Example 552, monohydrochloride]
Output: 107

Task: // returns reported inhibition at 1 µM for input CC(=O)N(C)C[C@]1(O)CNCCO[C@H]1c1ccc(Cl)c(F)c1 (relative stereo) [Example 563]
Output: 103

Task: // returns reported inhibition at 1 µM for input O=C1CNC(=O)N1C[C@@]1(c2ccc(Cl)c(Cl)c2)CCNCCO1 [Example 439, monohydrochloride]
Output: 98

----------
Collected inhibition at 1 µM values appear next to each entry.
target: human serotonin transporter (Homo sapiens); construct: expressed in transfected cells; experiment: Inhibitory action on human serotonin transporter ([3H]-5-hydroxytryptamine uptake in CHO cells); format: cell-based; conditions: CHO, compound 1 μM; relative to inhibitory activity of 10 μM Paroxetine as 100%; read-out: inhibitory rate (%)
Where a name gives a salt, the structure may show the parent alone.
Report the value in % with no unit label.

Worked set:
O=C(NC[C@@H]1CNCCO[C@H]1c1ccc(Cl)c(F)c1)c1ccc[nH]c1=O [Example 367, monohydrochloride]	99
OC[C@H](O)[C@@H]1OCCNC[C@H]1c1ccc(Cl)c(Cl)c1 [Example 45, monohydrochloride]	36
O=C(NC[C@@H]1CNCCO[C@H]1c1ccc(Cl)c(Cl)c1)c1ccccc1 [Example 126, monohydrochloride]	97

Proceeding to the next compound to report its inhibition at 1 µM.
Task: Write down the reported inhibition at 1 µM of O=C(NC[C@@H]1CNCCO[C@H]1c1ccc(Cl)c(Cl)c1)c1cccc(-c2noc(=O)[nH]2)c1 [Example 142, monohydrochloride] , test system: human serotonin transporter (Homo sapiens).
Output: 95

----------
biological target: human dopamine transporter (Homo sapiens, UniProt Q01959); construct: expressed in transfected cells; experiment: Inhibitory action on human dopamine transporter ([3H]-dopamine uptake in CHO cells); assay type: cell-based; conditions: compound 1 μM; relative to inhibitory activity of 100 μM Nomifensine as 100%
Sequence (Q01959 whole entry): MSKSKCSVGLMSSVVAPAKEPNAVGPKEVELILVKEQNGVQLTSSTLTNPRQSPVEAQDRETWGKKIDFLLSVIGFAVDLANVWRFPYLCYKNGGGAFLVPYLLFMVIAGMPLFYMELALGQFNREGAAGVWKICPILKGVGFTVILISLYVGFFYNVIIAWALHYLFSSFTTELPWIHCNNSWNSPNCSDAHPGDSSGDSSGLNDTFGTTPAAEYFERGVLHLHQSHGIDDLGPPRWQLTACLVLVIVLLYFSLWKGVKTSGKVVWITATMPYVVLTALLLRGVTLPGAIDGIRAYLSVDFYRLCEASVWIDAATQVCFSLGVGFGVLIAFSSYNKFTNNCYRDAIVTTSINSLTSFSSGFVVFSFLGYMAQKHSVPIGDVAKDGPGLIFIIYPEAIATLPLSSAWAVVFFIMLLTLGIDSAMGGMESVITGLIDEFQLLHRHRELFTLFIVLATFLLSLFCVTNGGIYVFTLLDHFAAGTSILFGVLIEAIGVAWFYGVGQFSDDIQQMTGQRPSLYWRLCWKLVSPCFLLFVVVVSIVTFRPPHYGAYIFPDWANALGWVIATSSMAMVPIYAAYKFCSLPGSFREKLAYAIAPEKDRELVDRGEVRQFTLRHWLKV
Structures can show the parent of a compound that is named as a salt.
Collected inhibitory rate (%) values appear next to each entry.
Report the value in % with no unit label.

Worked set:
OC[C@H]1NCCOC[C@@H]1c1ccc(Cl)c(Cl)c1 (racemic) [Example 14, monohydrochloride]	87
Cc1cc(C2OCCNCC2CO)ccc1Cl (centres unmarked)	19
OCC1CNCCOC1c1ccc(Cl)c(Cl)c1 (centres unmarked)	41
Cc1ccc(C2OCCNCC2CO)cc1Cl (centres unmarked)	22

Task: // returns reported inhibitory rate (%) for input OCC1CNCCOC1c1ccc(Cl)c(F)c1 (centres unmarked)
Output: 6

----------
Collected inhibition at 1 µM values appear next to each entry.
target: human norepinephrine transporter (Homo sapiens); construct: expressed in transfected cells; experiment: Inhibitory action on human norepinephrine transporter ([3H]-norepinephrine uptake in CHO cells); type: cell-based; settings: CHO, compound 1 μM; relative to inhibitory activity of 10 μM DMI as 100%; read-out: inhibitory rate (%)
Where a name gives a salt, the structure may show the parent alone.
Report the value in % with no unit label.

Worked set:
OC[C@@H](O)[C@H]1OCCNC[C@H]1c1ccc(Cl)c(Cl)c1	96
Cc1ccc([C@H]2OCCNC[C@@H]2CNS(C)(=O)=O)cc1Cl (relative stereo) [Example 409, monohydrochloride]	105
OC[C@@H](O)[C@@H]1OCCNC[C@H]1c1ccc(Cl)c(Cl)c1 [Example 46, monohydrochloride]	104
CS(=O)(=O)NC[C@@]1(O)CNCCO[C@@H]1c1ccc(Cl)c(Cl)c1 (racemic) [Example 162, monohydrochloride]	105
O=c1[nH]c(-c2cccnc2O[C@@H]2CNCCO[C@H]2c2ccc(Cl)c(F)c2)no1 [Example 556, monohydrochloride]	101

Task: // returns reported inhibition at 1 µM for input CS(=O)(=O)N[C@@H]1CNCCO[C@H]1c1ccc(Cl)c(Cl)c1 [Example 265, monohydrochloride]
Output: 102

Task: // returns reported inhibition at 1 µM for input CS(=O)(=O)CC1(O)CNCCOC1c1ccc(Cl)c(F)c1 (stereo not shown)
Output: 103

----------
target: human dopamine transporter (Homo sapiens); construct: expressed in transfected cells; assay: Inhibitory action on human dopamine transporter ([3H]-dopamine uptake in CHO cells); format: cell-based; conditions: CHO, compound 1 μM; relative to inhibitory activity of 100 μM Nomifensine as 100%; read-out: inhibitory rate (%)
Counter-ions that a name gives are not always drawn.
measure: inhibition at 1 µM (%)
Report the value in % with no unit label.

Worked set:
CC(=O)NC[C@H]1OCCNC[C@H]1c1ccc(Cl)c(Cl)c1 [Example 453, monohydrochloride]	99
OC[C@@H]1CNCCO[C@H]1c1ccc(Cl)c(Cl)c1 [Example 72, monohydrochloride]	41
CCNC(=O)NC[C@@H]1CNCCO[C@@H]1c1ccc(Cl)c(Cl)c1 (racemic) [Example 52, monohydrochloride]	29

Task: // returns reported inhibition at 1 µM for input O=c1[nH]c(-c2cccn(C[C@@H]3CNCCO[C@H]3c3ccc(Cl)c(F)c3)c2=O)no1 [Example 43, monohydrochloride]
Output: 15

----------
biological target: human dopamine transporter (Homo sapiens); construct: expressed in transfected cells; assay: Inhibitory action on human dopamine transporter ([3H]-dopamine uptake in CHO cells); assay type: cell-based; conditions: CHO, compound 10 μM; relative to inhibitory activity of 100 μM Nomifensine as 100%; read-out: inhibitory rate (%)
Where a name gives a salt, the structure may show the parent alone.
Collected inhibition at 10 µM values appear next to each entry.
Report the value in % with no unit label.

Task: // returns reported inhibition at 10 µM for input OC[C@H]1OCCNC[C@H]1c1ccc(Cl)c(Cl)c1 (racemic) [Example 25, monohydrochloride]
Output: 94

Task: // returns reported inhibition at 10 µM for input CS(=O)(=O)NCC1(c2ccc(Cl)c(Cl)c2)CNCCCO1 (racemic) [Example 24, monohydrochloride]
Output: 50

Task: // returns reported inhibition at 10 µM for input NS(=O)(=O)NCC1(c2ccc(Cl)c(Cl)c2)CCNCCO1 (racemic) [Example 22, monohydrochloride]
Output: 63

Task: // returns reported inhibition at 10 µM for input COC1(c2ccc(Cl)c(Cl)c2)CNCCOC1 (racemic) [Example 17, monohydrochloride]
Output: 53

Task: // returns reported inhibition at 10 µM for input CC(=O)NC[C@H]1CNCCO[C@@H]1c1ccc(Cl)c(Cl)c1 (racemic) [Example 6, monohydrochloride]
Output: 84

Task: // returns reported inhibition at 10 µM for input CS(=O)(=O)C[C@H]1CNCCOC1c1ccc(F)c(Cl)c1 (mixture of isomers) [Example 12, monohydrochloride]
Output: 90

----------
Collected inhibition at 1 µM values appear next to each entry.
Biological target: human serotonin transporter (Homo sapiens, UniProt P31645)
Construct: expressed in transfected cells
Sequence (P31645 whole entry): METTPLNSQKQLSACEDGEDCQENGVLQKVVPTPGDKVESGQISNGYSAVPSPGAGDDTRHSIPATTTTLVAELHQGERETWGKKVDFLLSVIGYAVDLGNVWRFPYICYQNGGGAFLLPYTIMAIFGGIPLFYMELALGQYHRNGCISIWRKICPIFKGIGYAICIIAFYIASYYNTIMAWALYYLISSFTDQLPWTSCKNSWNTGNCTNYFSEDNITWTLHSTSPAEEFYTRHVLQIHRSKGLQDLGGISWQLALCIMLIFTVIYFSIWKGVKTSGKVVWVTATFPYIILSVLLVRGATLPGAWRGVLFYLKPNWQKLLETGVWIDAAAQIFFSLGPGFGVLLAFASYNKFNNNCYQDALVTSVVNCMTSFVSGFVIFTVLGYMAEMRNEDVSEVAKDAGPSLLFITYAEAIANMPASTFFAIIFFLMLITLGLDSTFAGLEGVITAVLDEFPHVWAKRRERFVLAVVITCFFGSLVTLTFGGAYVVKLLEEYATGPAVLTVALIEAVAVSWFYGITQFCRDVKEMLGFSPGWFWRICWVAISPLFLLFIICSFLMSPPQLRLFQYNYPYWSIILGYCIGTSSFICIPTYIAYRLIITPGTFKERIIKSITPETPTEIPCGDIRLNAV
Assay: Inhibitory action on human serotonin transporter ([3H]-5-hydroxytryptamine uptake in CHO cells)
Assay type: cell-based
Details: CHO, compound 1 μM; relative to inhibitory activity of 10 μM Paroxetine as 100%; read-out: inhibitory rate (%)
Procedure: Human serotonin transporter cDNA was amplified from human brain cDNA library by PCR, and inserted into pCRII-TOPO vector (manufactured by Invitrogen). […] Then, an assay buffer (126 mM NaCl, 4.95 mM KCl, 1.26 mM KH2PO4, 1.26 mM MgSO4, 10 mM HEPES, 2.32 mM CaCl2, 5.52 mM Glucose, 0.5% BSA) was prepared, the medium in the cell plate was removed and the assay buffer was added by 80 μL. […] The radioactivity was measured by TopCount (PerkinElmer). […]
Structures can show the parent of a compound that is named as a salt.
Write the quantity with the unit trailing the number.

Worked set:
CC(=O)NC[C@@H]1CNCCO[C@H]1c1ccc(Cl)c(Cl)c1	84%
O=c1[nH]c(-c2ccc(OC[C@@H]3CNCCO[C@H]3c3ccc(Cl)c(Cl)c3)nc2)no1 [Example 87, monohydrochloride]	96%
OCC1CNCCOC1c1ccc(Cl)c(Cl)c1 (stereo not shown)	98%
CS(=O)(=O)C[C@@H]1CNCCO[C@@H]1c1ccc(Cl)c(Cl)c1 (racemic) [Example 50, monohydrochloride]	100%
CC(=O)NC[C@H]1CNCCO[C@@H]1c1ccc(Cl)c(Cl)c1 (racemic) [Example 6, monohydrochloride]	84%

Task: // returns reported inhibition at 1 µM for input O=c1[nH]c(-c2cccnc2OC2CNCCOC2c2ccc(Cl)c(Cl)c2)no1 (stereo not shown)
Output: 97%

Task: // returns reported inhibition at 1 µM for input `O=c1[nH]c(-c2ccccc2O[C@@H]2CNCCO[C@H]2c2ccc(Cl)c(F)c2)no1`
Output: 53%

Task: // returns reported inhibition at 1 µM for input O=C1NCCCN1C[C@H]1OCCNC[C@H]1c1ccc(Cl)c(Cl)c1 [Example 545, monohydrochloride]
Output: 94%

Task: // returns reported inhibition at 1 µM for input NC(=O)NC[C@H]1CNCCO[C@@H]1c1ccc(Cl)c(Cl)c1 [Example 153, monofumarate]
Output: 93%

Task: // returns reported inhibition at 1 µM for input `O=c1[nH]c(-c2ncccc2O[C@@H]2CNCCO[C@H]2c2ccc(Cl)c(F)c2)no1`
Output: 41%

Task: // returns reported inhibition at 1 µM for input CC(=O)[C@@H]1CNCCO[C@H]1c1ccc(Cl)c(Cl)c1 [Example 216, monohydrochloride]
Output: 42%
